Biological target: PTHR1 receptor
Sequence (P25961 whole entry): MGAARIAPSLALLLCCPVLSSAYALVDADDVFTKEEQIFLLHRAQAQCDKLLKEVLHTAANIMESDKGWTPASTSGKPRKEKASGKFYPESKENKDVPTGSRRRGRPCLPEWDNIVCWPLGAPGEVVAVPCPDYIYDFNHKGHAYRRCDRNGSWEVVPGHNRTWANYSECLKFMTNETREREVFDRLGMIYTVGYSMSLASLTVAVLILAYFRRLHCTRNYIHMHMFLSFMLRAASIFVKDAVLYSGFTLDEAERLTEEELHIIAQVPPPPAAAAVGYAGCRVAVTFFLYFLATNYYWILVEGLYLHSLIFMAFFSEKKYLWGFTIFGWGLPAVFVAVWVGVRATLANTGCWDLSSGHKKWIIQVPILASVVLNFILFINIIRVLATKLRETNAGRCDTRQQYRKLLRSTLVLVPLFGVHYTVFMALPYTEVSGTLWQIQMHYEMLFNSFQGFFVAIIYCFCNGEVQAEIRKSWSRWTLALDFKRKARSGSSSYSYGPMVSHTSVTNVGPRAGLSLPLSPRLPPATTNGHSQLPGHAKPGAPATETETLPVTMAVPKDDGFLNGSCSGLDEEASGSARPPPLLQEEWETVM
* marks the point of attachment. Palmitoyl = CCCCCCCCCCCCCCCC(=O)*
observable: Inhibition of Maximal Response (%)
Just the number please, in %, no unit attached.

Palmitoyl-RETNAGRSDTRQQYRF-NH2 (SMILES CCCCCCCCCCCCCCCC(=O)N[C@@H](CCCNC(=N)N)C(=O)N[C@@H](CCC(=O)O)C(=O)N[C@H](C(=O)N[C@@H](CC(N)=O)C(=O)N[C@@H](C)C(=O)NCC(=O)N[C@@H](CCCNC(=N)N)C(=O)N[C@@H](CO)C(=O)N[C@@H](CC(=O)O)C(=O)N[C@H](C(=O)N[C@@H](CCCNC(=N)N)C(=O)N[C@@H](CCC(N)=O)C(=O)N[C@@H](CCC(N)=O)C(=O)N[C@@H](Cc1ccc(O)cc1)C(=O)N[C@@H](CCCNC(=N)N)C(=O)N[C@@H](Cc1ccccc1)C(N)=O)[C@@H](C)O)[C@@H](C)O) [Compound 61]	-47.6
Palmitoyl-RETNAGRSDTRQQY-NH2 (SMILES CCCCCCCCCCCCCCCC(=O)N[C@@H](CCCNC(=N)N)C(=O)N[C@@H](CCC(=O)O)C(=O)N[C@H](C(=O)N[C@@H](CC(N)=O)C(=O)N[C@@H](C)C(=O)NCC(=O)N[C@@H](CCCNC(=N)N)C(=O)N[C@@H](CO)C(=O)N[C@@H](CC(=O)O)C(=O)N[C@H](C(=O)N[C@@H](CCCNC(=N)N)C(=O)N[C@@H](CCC(N)=O)C(=O)N[C@@H](CCC(N)=O)C(=O)N[C@@H](Cc1ccc(O)cc1)C(N)=O)[C@@H](C)O)[C@@H](C)O) [Compound 62]	-5.4
Palmitoyl-NGEVQAEIKKSWSRWT-NH2 (SMILES CCCCCCCCCCCCCCCC(=O)N[C@@H](CC(N)=O)C(=O)NCC(=O)N[C@@H](CCC(=O)O)C(=O)N[C@H](C(=O)N[C@@H](CCC(N)=O)C(=O)N[C@@H](C)C(=O)N[C@@H](CCC(=O)O)C(=O)N[C@H](C(=O)N[C@@H](CCCCN)C(=O)N[C@@H](CCCCN)C(=O)N[C@@H](CO)C(=O)N[C@@H](Cc1c[nH]c2ccccc12)C(=O)N[C@@H](CO)C(=O)N[C@@H](CCCNC(=N)N)C(=O)N[C@@H](Cc1c[nH]c2ccccc12)C(=O)N[C@H](C(N)=O)[C@@H](C)O)[C@@H](C)CC)C(C)C) [Compound 101]	25.3

Next up:
Sample Palmitoyl-GSEKKYLWGFT-NH2 (SMILES CCCCCCCCCCCCCCCC(=O)NCC(=O)N[C@@H](CO)C(=O)N[C@@H](CCC(=O)O)C(=O)N[C@@H](CCCCN)C(=O)N[C@@H](CCCCN)C(=O)N[C@@H](Cc1ccc(O)cc1)C(=O)N[C@@H](CC(C)C)C(=O)N[C@@H](Cc1c[nH]c2ccccc12)C(=O)NCC(=O)N[C@@H](Cc1ccccc1)C(=O)N[C@H](C(N)=O)[C@@H](C)O) [Compound 42] — what was its Inhibition of Maximal Response? 40.8
